Where these numbers come from: the Human Domainome abundance scans (Beltran et al. 2025)

B1: Mineralocorticoid receptor, residues 600 to 675; numbered along this chain, P08235 (parent)
chain: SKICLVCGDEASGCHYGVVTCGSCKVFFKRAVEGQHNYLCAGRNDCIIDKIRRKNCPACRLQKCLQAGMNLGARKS

Variants of: B1
Experiment: abundance fitness (aPCA) (normalised: wild type 0, dead -1); higher = more abundant; growth selection in yeast, the domain comes from the species named
Conditions: Homo sapiens
Property measured: abundance fitness
The reply should be a number, written without any unit.

{"Polymer sequence": "SKICLVCGDEASGCHYGVVTCGSCKVFFKRAVEGQHNYLCAGRNDCIIDKIRRKNCPACRLQKCYQAGMNLGARKS [L65Y]", "abundance fitness": -0.001}
{"Polymer sequence": "SKACLVCGDEASGCHYGVVTCGSCKVFFKRAVEGQHNYLCAGRNDCIIDKIRRKNCPACRLQKCLQAGMNLGARKS [I3A]", "abundance fitness": -0.157}
{"Polymer sequence": "SKICLVCGDEASGCHYGVVTCGSCKVFFKRAVEGQHNYLCAGRNDCIIDKIRRKNCPACRLQKCLQAGMSLGARKS [N70S]", "abundance fitness": 0.034}
{"Polymer sequence": "SKICLVCGDEASGCHYGVVTCGSCKVFFKRAVEGPHNYLCAGRNDCIIDKIRRKNCPACRLQKCLQAGMNLGARKS [Q35P]", "abundance fitness": -0.013}
{"Polymer sequence": "SKICLVCGDEASGCHYGVVTCGSCKVFFKRAVEGQHNYLCAGRNDCIIDKIRRKDCPACRLQKCLQAGMNLGARKS [N55D]", "abundance fitness": 0.017}

Ask: # abundance fitness lookup, item SKICLVCGDEACGCHYGVVTCGSCKVFFKRAVEGQHNYLCAGRNDCIIDKIRRKNCPACRLQKCLQAGMNLGARKS [S12C]
Result: -0.142

Ask: # abundance fitness lookup, item SKICLVCRDEASGCHYGVVTCGSCKVFFKRAVEGQHNYLCAGRNDCIIDKIRRKNCPACRLQKCLQAGMNLGARKS [G8R]
Result: -0.043

Ask: # abundance fitness lookup, item SKICLVCGDEASGCHYGVVTCGSCKVFFKRAVEGQHNYLCAGRNDCIIDKIRRKNCPACRLQKCLQAGMNLGADKS [R74D]
Result: -0.003

Ask: # abundance fitness lookup, item SKICLVCGDEASGCHYGVVTCGSCKVFFKRAVEGQHNYLCAGRNDCIIDKIRRKNCVACRLQKCLQAGMNLGARKS [P57V]
Result: -0.135

Ask: # abundance fitness lookup, item SKICLVCGDEASGCHYGVVTCGSCKVFFKRAVEGQHNYLCAGRNDCIIDKKRRKNCPACRLQKCLQAGMNLGARKS [I51K]
Result: -0.093
